assay: melting temperature; melt of duplexes; settings: sodium 0.0675 M; strand 1 µM
property: Tm (°C)
Answers are plain numbers, in °C.

{"columns": ["substance", "unitString", "Tm"],
 "data": [
  ["CGACGTGCATTATGTGCTG+CAGCACATGCAGCACGTCG ((((((((...((((((((+))))))))...))))))))", "°C", 48.7]
]}

Take each entry in turn and give its Tm.
1. CGACGTGCTAAATGTGCTG+CAGCACATCAGGCACGTCG ((((((((...((((((((+))))))))...))))))))
2. CGACGTGCGTGATGTGCTG+CAGCACATTAAGCACGTCG ((((((((.(.((((((((+)))))))).).))))))))
3. CGACGTGCCCCATGTGCTG+CAGCACATGGTGCACGTCG ((((((((.((((((((((+)))))))))).))))))))
4. CGACGTGCTGCATGTGCTG+CAGCACATGTTGCACGTCG ((((((((..(((((((((+)))))))))..))))))))
5. CGACGTGCTGTATGTGCTG+CAGCACATTCCGCACGTCG ((((((((.(.((((((((+)))))))).).))))))))
6. CGACGTGCGCCATGTGCTG+CAGCACATTAAGCACGTCG ((((((((...((((((((+))))))))...))))))))
7. CGACGTGCGGGATGTGCTG+CAGCACATAGGGCACGTCG ((((((((...((((((((+))))))))...))))))))

[50.9, 54.5, 56.7, 56.4, 50.1, 52.1, 50.1]

====

assay: melting temperature; melt of duplexes; conditions: sodium 0.0675 M; strand 1 µM
Outcome label depends on Tm relative to 50 °C: at/above gives 1.0, below gives 0.0.

Examples from the recorded data:
{"columns": ["substance", "assignedCategory"],
 "data": [
  ["CGACGTGCGTTATGTGCTG+CAGCACATTTCGCACGTCG (((((((((..((((((((+))))))))..)))))))))", 1.0],
  ["CGACGTGCAACATGTGCTG+CAGCACATAACGCACGTCG ((((((((...((((((((+))))))))...))))))))", 0.0],
  ["CGACGTGCGCAATGTGCTG+CAGCACATGCAGCACGTCG ((((((((...((((((((+))))))))...))))))))", 1.0],
  ["CGACGTGCCTCATGTGCTG+CAGCACATAATGCACGTCG ((((((((.(.((((((((+)))))))).).))))))))", 0.0]
]}

Kindly determine if Tm recorded for CGACGTGCGGCATGTGCTG+CAGCACATGCGGCACGTCG ((((((((.((((((((((+)))))))))).)))))))) is above or exactly 50 °C. 1.0

Kindly determine if Tm recorded for CGACGTGCAAGATGTGCTG+CAGCACATCTAGCACGTCG ((((((((.((((((((((+)))))))))).)))))))) is above or exactly 50 °C. 1.0

Kindly determine if Tm recorded for CGACGTGCCGTATGTGCTG+CAGCACATAGAGCACGTCG ((((((((..(((((((((+)))))))))..)))))))) is above or exactly 50 °C. 1.0

====

test: melting temperature; melt of duplexes; settings: sodium 0.0675 M; strand 1 µM
Outcome label depends on Tm relative to 50 °C: at/above gives Condition met, below gives Condition not met.

Examples from the recorded data:
{"columns": ["substance", "assignedCategory"],
 "data": [
  ["CGACGTGCCGTATGTGCTG+CAGCACATGTGGCACGTCG (((((((((..((((((((+))))))))..)))))))))", "Condition met"],
  ["CGACGTGCGTTATGTGCTG+CAGCACATGTAGCACGTCG ((((((((...((((((((+))))))))...))))))))", "Condition met"],
  ["CGACGTGCCCGATGTGCTG+CAGCACATATCGCACGTCG ((((((((...((((((((+))))))))...))))))))", "Condition not met"],
  ["CGACGTGCGCCATGTGCTG+CAGCACATGTAGCACGTCG ((((((((..(((((((((+)))))))))..))))))))", "Condition met"],
  ["CGACGTGCCCTATGTGCTG+CAGCACATACGGCACGTCG (((((((((.(((((((((+))))))))).)))))))))", "Condition met"]
]}

Kindly determine if Tm recorded for CGACGTGCTTTATGTGCTG+CAGCACATAATGCACGTCG ((((((((.((((((((((+)))))))))).)))))))) is above or exactly 50 °C. Condition met

Kindly determine if Tm recorded for CGACGTGCGCAATGTGCTG+CAGCACATGCCGCACGTCG (((((((((..((((((((+))))))))..))))))))) is above or exactly 50 °C. Condition met

Kindly determine if Tm recorded for CGACGTGCATTATGTGCTG+CAGCACATTCCGCACGTCG ((((((((...((((((((+))))))))...)))))))) is above or exactly 50 °C. Condition not met

Kindly determine if Tm recorded for CGACGTGCACAATGTGCTG+CAGCACATCTAGCACGTCG ((((((((...((((((((+))))))))...)))))))) is above or exactly 50 °C. Condition not met

Kindly determine if Tm recorded for CGACGTGCGGAATGTGCTG+CAGCACATGTAGCACGTCG ((((((((...((((((((+))))))))...)))))))) is above or exactly 50 °C. Condition met

Kindly determine if Tm recorded for CGACGTGCACGATGTGCTG+CAGCACATTACGCACGTCG ((((((((...((((((((+))))))))...)))))))) is above or exactly 50 °C. Condition not met

====

experiment: melting temperature; melt of duplexes; settings: sodium 0.0675 M; strand 1 µM
For each entry below, report its Tm value.
Give bare numbers, in °C.

Use these answered entries as a reference point.
{"columns": ["substance", "unitString", "Tm"],
 "data": [
  ["CGACGTGCTAAATGTGCTG+CAGCACATGTTGCACGTCG ((((((((.(.((((((((+)))))))).).))))))))", "°C", 52.6],
  ["CGACGTGCTCCATGTGCTG+CAGCACATGACGCACGTCG ((((((((..(((((((((+)))))))))..))))))))", "°C", 49.8],
  ["CGACGTGCCTGATGTGCTG+CAGCACATACCGCACGTCG ((((((((...((((((((+))))))))...))))))))", "°C", 48.1],
  ["CGACGTGCGTAATGTGCTG+CAGCACATTCGGCACGTCG ((((((((..(((((((((+)))))))))..))))))))", "°C", 53.1],
  ["CGACGTGCACAATGTGCTG+CAGCACATAGGGCACGTCG ((((((((.(.((((((((+)))))))).).))))))))", "°C", 53],
  ["CGACGTGCACGATGTGCTG+CAGCACATCATGCACGTCG (((((((((.(((((((((+))))))))).)))))))))", "°C", 55.3],
  ["CGACGTGCTACATGTGCTG+CAGCACATAACGCACGTCG ((((((((...((((((((+))))))))...))))))))", "°C", 49],
  ["CGACGTGCATGATGTGCTG+CAGCACATCGAGCACGTCG ((((((((..(((((((((+)))))))))..))))))))", "°C", 56.1],
  ["CGACGTGCATCATGTGCTG+CAGCACATCGTGCACGTCG (((((((((..((((((((+))))))))..)))))))))", "°C", 47.2],
  ["CGACGTGCCACATGTGCTG+CAGCACATCTGGCACGTCG ((((((((((.((((((((+)))))))).))))))))))", "°C", 55.2]
]}

Take each entry in turn and give its Tm.
1. CGACGTGCTTGATGTGCTG+CAGCACATTTCGCACGTCG ((((((((...((((((((+))))))))...))))))))
2. CGACGTGCTTCATGTGCTG+CAGCACATGTCGCACGTCG ((((((((..(((((((((+)))))))))..))))))))
3. CGACGTGCGATATGTGCTG+CAGCACATAATGCACGTCG ((((((((..(((((((((+)))))))))..))))))))
4. CGACGTGCTAGATGTGCTG+CAGCACATAGTGCACGTCG ((((((((...((((((((+))))))))...))))))))
5. CGACGTGCGGTATGTGCTG+CAGCACATTTGGCACGTCG ((((((((...((((((((+))))))))...))))))))

48.5
52.2
54
46.1
49.9
